Tested on: MOLT-4 leukemia
TEST_DESCRIPTION: NCI tumour cell line growth inhibition, 48 h; in the data active means GI50 below about 0.43 µM; inactive means the rest
In this exercise, the only acceptable responses are y for active, n for inactive

Enquiry: Test call for this compound, please: C=C1C(=O)O[C@H]2[C@H]1CC/C(COC(=O)c1cc3cc(F)ccc3[nH]1)=C\CC[C@@]1(C)O[C@@H]21
Return: n

Enquiry: Please do the same for C=C1C(=O)O[C@H]2[C@H]1CC/C(Cn1cc(CNC(=O)Cc3cn(C(=O)c4ccc(Cl)cc4)c4ccc(OC)cc34)nn1)=C\CC[C@@]1(C)O[C@@H]21 as well.
Return: n

Enquiry: Please do the same for COc1ccc(N=C2CSc3nnc(-c4cc(F)c(Cl)cc4Cl)n3N2)cc1 as well.
Return: n

Enquiry: Please do the same for COc1cc(/C(C#N)=C/c2ccc3c(c2OC)OCO3)cc2c1OCO2 as well.
Return: y

Enquiry: Please do the same for CC(C)C[C@H](NC(=O)[C@H](Cc1cccc2ccccc12)NC(=O)N1CCOCC1)B(O)O as well.
Return: y

* * *

System: EKVX NSCLC
TEST_DESCRIPTION: NCI tumour cell line growth inhibition, 48 h
RECORDED_METRIC: TGI

Enquiry: What value of TGI has been recorded for this entry: COc1ccc(C2=C(OC(=O)N(C)C)c3cccn3-c3cc(C(F)(F)F)ccc3S2)cc1
Return: > 10 µM

Enquiry: Please do the same for CCCCOC(=O)C(=O)C(CCC(=O)c1ccc(C)cc1)C(=O)C=C(C)C (configuration not stated) as well.
Return: > 100 µM

Enquiry: Please do the same for CCN(CC)CCOc1nc2ccc(OC)cc2c2c1-c1ccc(OC)cc1C2=O as well.
Return: 2.81 µM

Enquiry: Please do the same for CCNC(=O)Nc1cccc(C)n1 as well.
Return: > 100 µM

Enquiry: Please do the same for CC(C)/C(Cl)=N/OC(=O)Nc1ccc(F)c(Cl)c1 as well.
Return: 5.17 µM

Enquiry: Please do the same for Cc1ccc(C(=O)OC[C@H]2CC[C@@H](n3cc(N(C)C4CCCCC4)c(=O)[nH]c3=O)O2)cc1 as well.
Return: > 100 µM

Enquiry: Please do the same for O=C(CCCn1cnc([N+](=O)[O-])n1)NCCn1ccnc1[N+](=O)[O-] as well.
Return: > 100 µM

Enquiry: Please do the same for CC(=O)NCCCCNCCCNC(C)=O as well.
Return: > 100 µM

Enquiry: Please do the same for O=P(O)(CCP(=O)(O)c1ccccc1)c1ccccc1 as well.
Return: > 100 µM

Enquiry: Please do the same for Cn1c(=O)c2c(nc(NCCCCl)n2CC(=O)O)n(C)c1=O as well.
Return: > 100 µM

Enquiry: Please do the same for CCOC(=O)c1c2c(n3ccc(NC(=O)CCN4CCCC4)cc13)C(=O)c1ncccc1C2=O as well.
Return: 3.58 µM

Enquiry: Please do the same for COC(=O)c1cc(C)ccc1CC(Cc1cccc(C)c1)C(=O)OC (configuration not stated) as well.
Return: > 100 µM

* * *

System: LOX IMVI melanoma
TEST_DESCRIPTION: NCI tumour cell line growth inhibition, 48 h
Field: TGI. Provide a value for each of the compounds that follow.
Write down the numeric answer in µM and omit the unit.

Enquiry: What value of TGI has been recorded for this entry: O=C1C(Br)=CC2([N+](=O)[O-])CCNc3c(O)c4c5c(c3C2=C1Br)=NCCC=5C=N4 (stereo not given)
Return: 6.4

Enquiry: Please do the same for COc1ccc(N=C2CSc3nnc(-c4cc(F)c(Cl)cc4Cl)n3N2)cc1 as well.
Return: 11.1
